test target: cytochrome P450 BM-3 (Priestia megaterium, UniProt P14779, R48Q)
Sequence (P14779 whole entry R48Q): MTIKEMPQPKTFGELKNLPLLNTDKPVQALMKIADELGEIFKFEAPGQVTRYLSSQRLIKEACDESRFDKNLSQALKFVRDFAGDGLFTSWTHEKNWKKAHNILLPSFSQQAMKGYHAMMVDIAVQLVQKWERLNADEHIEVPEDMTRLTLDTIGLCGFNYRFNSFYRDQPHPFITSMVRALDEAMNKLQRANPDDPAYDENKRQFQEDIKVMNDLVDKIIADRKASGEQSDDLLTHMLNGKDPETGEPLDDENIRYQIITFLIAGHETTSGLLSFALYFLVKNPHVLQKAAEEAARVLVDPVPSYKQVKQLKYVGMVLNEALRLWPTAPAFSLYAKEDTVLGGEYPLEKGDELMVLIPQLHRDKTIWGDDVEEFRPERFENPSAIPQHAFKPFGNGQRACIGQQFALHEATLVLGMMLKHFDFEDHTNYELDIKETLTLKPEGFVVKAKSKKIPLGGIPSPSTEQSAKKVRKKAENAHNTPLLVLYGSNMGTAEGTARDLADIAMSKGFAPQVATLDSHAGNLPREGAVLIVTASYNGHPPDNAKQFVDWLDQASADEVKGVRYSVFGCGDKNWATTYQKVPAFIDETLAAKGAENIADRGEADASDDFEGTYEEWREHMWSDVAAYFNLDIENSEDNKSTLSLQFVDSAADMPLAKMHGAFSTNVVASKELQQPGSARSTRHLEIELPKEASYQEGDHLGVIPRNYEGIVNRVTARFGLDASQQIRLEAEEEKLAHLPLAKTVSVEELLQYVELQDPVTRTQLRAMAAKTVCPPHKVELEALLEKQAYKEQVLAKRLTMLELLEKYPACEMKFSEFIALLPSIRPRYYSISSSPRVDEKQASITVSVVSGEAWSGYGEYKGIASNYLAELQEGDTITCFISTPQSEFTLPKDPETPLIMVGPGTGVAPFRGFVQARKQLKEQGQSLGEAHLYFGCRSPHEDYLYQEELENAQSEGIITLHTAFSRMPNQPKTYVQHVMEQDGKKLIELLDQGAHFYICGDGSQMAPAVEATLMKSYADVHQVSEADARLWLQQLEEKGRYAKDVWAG
measurement description: spectral
pKd: −log10 of the molar value.
endpoint label: pKd

>  <given smiles>
CCCCCCCCCCCCCCCC(=O)NCC(=O)O

>  <endpoint label>
pKd

>  <readout value>
5.15

$$$$

###

test target: cytochrome P450 BM-3 (Priestia megaterium, UniProt P14779, R48K)
Sequence (P14779 whole entry R48K): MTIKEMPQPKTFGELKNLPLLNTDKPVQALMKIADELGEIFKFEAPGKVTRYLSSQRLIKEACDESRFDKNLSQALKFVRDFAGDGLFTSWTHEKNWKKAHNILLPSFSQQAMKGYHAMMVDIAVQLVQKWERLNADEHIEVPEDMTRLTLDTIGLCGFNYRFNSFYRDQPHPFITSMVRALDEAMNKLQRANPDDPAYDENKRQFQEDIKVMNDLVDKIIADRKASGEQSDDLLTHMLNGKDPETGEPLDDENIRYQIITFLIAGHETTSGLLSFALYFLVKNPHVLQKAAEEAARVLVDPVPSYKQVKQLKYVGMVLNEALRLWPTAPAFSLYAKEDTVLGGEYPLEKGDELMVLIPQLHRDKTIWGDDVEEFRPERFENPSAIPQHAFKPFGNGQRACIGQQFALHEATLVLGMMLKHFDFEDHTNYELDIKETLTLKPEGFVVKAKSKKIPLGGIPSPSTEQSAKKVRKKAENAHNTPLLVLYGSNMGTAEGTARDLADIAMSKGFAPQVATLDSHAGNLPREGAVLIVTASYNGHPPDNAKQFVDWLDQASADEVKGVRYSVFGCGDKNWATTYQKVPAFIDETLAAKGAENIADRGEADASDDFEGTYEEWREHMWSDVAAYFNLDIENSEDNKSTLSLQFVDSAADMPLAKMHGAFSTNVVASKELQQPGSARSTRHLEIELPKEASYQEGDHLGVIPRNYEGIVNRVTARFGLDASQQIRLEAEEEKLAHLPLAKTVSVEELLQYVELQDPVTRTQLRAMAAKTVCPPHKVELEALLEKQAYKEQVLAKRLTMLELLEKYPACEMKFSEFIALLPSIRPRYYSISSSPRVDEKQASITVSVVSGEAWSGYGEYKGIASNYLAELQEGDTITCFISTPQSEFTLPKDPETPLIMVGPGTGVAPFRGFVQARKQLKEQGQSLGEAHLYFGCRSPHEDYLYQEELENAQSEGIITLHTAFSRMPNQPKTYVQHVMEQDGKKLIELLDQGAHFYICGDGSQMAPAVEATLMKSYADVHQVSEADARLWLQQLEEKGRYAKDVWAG
measurement description: spectral

>  <given smiles>
CCCCCCCCCCCCCCCC(=O)NCC(=O)O

>  <Kd>
1.2 µM

$$$$

Hey, just so you know, these numbers are from paper PMC5945292.
